read-out: Bcl-2 (BAD) gene, BAD (gene 572); assay: LTEA_HepaRG_BAD: Life Technologies and Expression Analysis (LTEA) Assay for Bcl-2 (BAD) gene using HepaRG (AID 2283469); settings: mRNA level, 48 h; actives raise or lower the signal
Active and inactive are the calls of the source. Rule for the calls: active = hit-call score of the fitted dose curve at least 0.9, where 1 is the maximum; inactive = score below 0.9.
test readout: AC50

>>> endpoint_value("Clc1nc(Cl)nc(Nc2ccccc2Cl)n1")
"inactive"
>>> endpoint_value("OC(c1ccc(Cl)cc1)(c1ccc(Cl)cc1)C(Cl)(Cl)Cl")
"70.1 µM (active)"
>>> endpoint_value("COCC(C)N(C(=O)CCl)c1c(C)csc1C (stereo not drawn)")
"inactive"
>>> endpoint_value("CCOc1cc(C(C)(C)C)ccc1C1COC(c2c(F)cccc2F)=N1 (stereo not drawn)")
"inactive"
>>> endpoint_value("CCN(CC)c1nc(C)cc(OP(=S)(OC)OC)n1")
"inactive"
>>> endpoint_value("CCOP(=S)(OCC)Oc1nc(Cl)n(C(C)C)n1")
"inactive"
>>> endpoint_value("Cc1cnc(C2=NC(C)(C(C)C)C(=O)N2)c(C(=O)O)c1 (stereo not drawn)")
"inactive"
>>> endpoint_value("CCSC(=O)N1CCCCCC1")
"inactive"
>>> endpoint_value("CC1(C)CCC(=Cc2ccc(Cl)cc2)C1(O)Cn1cncn1 (stereo not drawn)")
"inactive"
>>> endpoint_value("COP(=S)(OC)Oc1ccc([N+](=O)[O-])c(C)c1")
"inactive"
>>> endpoint_value("CCOc1nc(C(Cl)(Cl)Cl)ns1")
"1.3 µM (active)"
>>> endpoint_value("Nc1cnn(-c2ccccc2)c(=O)c1Cl")
"inactive"
>>> endpoint_value("O=c1n(Cl)c(=O)n(Cl)c(=O)n1Cl")
"inactive"

====

molecular target: Estrogen receptor beta (Homo sapiens); assay: OT_ER_ERbERb_1440: Odyssey Thera (OT) 24-hour HEK293T Protein-Complementation Assay for Estrogen Receptor-beta/-beta Homodimer (AID 2283380);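 note: fluorescence gain from ER beta LBD homodimer complementation read by laser scanning cytometry; scored as signal increase over DMSO baseline for both agonists and antagonists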
The source made the active and inactive calls. How the source made its calls: active means hit-call score of the fitted dose curve at least 0.9, where 1 is the maximum; inconclusive means response in the unintended direction; inactive means score below 0.9.
Possible outcomes: 1 (yes) = active, 0 (no) = inactive

>>> group("CCOP(=O)(OCC)Oc1nc(Cl)c(Cl)cc1Cl")
"0 (no)"
>>> group("CS(=O)(=O)c1cc(C(F)(F)F)ccc1C(=O)c1cnoc1C1CC1")
"0 (no)"
>>> group("Cc1ccc(N=CN(C)C=Nc2ccc(C)cc2C)c(C)c1")
"0 (no)"
>>> group("CCC(C)n1c(=O)[nH]c(C)c(Br)c1=O (configuration not stated)")
"0 (no)"
>>> group("CCCC(=NOCC)C1=C(O)CC(CC(C)SCC)CC1=O (configuration not stated)")
"0 (no)"
>>> group("COC(=O)N(C(=O)N1CO[C@@]2(C(=O)OC)Cc3cc(Cl)ccc3C2=N1)c1ccc(OC(F)(F)F)cc1")
"0 (no)"
>>> group("N#Cc1c(Cl)cccc1Cl")
"0 (no)"
>>> group("Cc1nc(N(C)C)nc(OC(=O)N(C)C)c1C")
"0 (no)"
>>> group("Cn1c(-c2ccccc2)cc(-c2ccccc2)[n+]1C")
"0 (no)"
>>> group("Nc1c(Cl)c(Cl)nc(C(=O)O)c1Cl")
"0 (no)"
>>> group("COC(=O)c1c(C(F)F)nc(C(F)(F)F)c(C2=NCCS2)c1CC(C)C")
"1 (yes)"
>>> group("CCCCC(O)(Cn1cncn1)c1ccc(Cl)cc1Cl (configuration not stated)")
"0 (no)"
